IC50: recorded values
Molecular target: Myd88-ERK2 (Homo sapiens (Human), UniProt P28482)
Sequence (P28482 whole entry): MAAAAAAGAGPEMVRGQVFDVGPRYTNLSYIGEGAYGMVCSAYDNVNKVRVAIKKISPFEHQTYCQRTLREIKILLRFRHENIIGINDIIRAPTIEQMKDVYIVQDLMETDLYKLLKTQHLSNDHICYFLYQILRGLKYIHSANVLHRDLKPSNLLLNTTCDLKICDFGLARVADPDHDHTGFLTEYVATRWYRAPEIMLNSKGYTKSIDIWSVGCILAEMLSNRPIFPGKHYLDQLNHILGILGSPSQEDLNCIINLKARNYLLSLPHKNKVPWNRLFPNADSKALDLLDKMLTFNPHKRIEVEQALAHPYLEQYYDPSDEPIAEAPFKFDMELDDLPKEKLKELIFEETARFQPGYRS
Experiment: HTRF assay of MyD88-ERK2 interaction
Type: binding
Conditions: GST-ERK2 50 nM, biotin-MyD88pep 50 nM; read-out: IC50* (μM) on Myd88-ERK2 in HRTF Assay
Protocol: [drawing 67] […] Homogeneous Time Resolved Fluorescence (HTRF) assay combines two techniques: Fluorescence Resonance Energy Transfer (FRET) and Time Resolved (TR) measurement. In TR-FRET, a transfer of fluorescence between a donor and an acceptor molecule generates a signal that can then be measured. […] Concentrations of compounds to be tested ranged from 0.1 μM to 100 μM. […] The plate was incubated at room temperature for 2 hours and fluorescence was measured using a TECAN Infinite F500 Reader®. […]

CN(C)c1ccc(-c2nc3cc(C(=O)Nc4ccncc4)ccc3[nH]2)cc1 [Compound 2] | 11.8 µM
COc1ccc(NC(=O)c2ccc3[nH]c(-c4ccc(N(C)C)cc4)nc3c2)cn1 [Compound 6] | 2.34 µM
CN(C)c1ccc(-c2nc3cc(NC(=O)c4ccccc4)ccc3[nH]2)cc1 [Comp. ex., reference compound] | > 50 µM

Next:
Q: Entry CCc1ccc(NC(=O)c2ccc3[nH]c(-c4ccc(N(C)C)cc4)nc3c2)cn1 [Compound 7] has what IC50?
Result: 25.5 µM

---

IC50: recorded values
Molecular target: Myd88-ERK1 (Homo sapiens (Human), UniProt P27361)
Sequence (P27361 whole entry): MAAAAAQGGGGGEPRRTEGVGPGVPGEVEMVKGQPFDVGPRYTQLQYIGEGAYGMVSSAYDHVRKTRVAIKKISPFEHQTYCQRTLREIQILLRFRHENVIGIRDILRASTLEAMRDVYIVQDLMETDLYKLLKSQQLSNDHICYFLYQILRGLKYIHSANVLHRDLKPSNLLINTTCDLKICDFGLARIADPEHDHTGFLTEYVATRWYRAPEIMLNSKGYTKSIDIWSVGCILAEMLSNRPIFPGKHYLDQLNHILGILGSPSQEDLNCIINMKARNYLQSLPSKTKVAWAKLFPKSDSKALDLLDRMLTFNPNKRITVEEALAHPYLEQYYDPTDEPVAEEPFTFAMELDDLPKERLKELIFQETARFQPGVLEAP
Test: HTRF assay of MyD88-ERK1 interaction
Assay type: binding
Conditions: 6xHis-ERK1 7.5 nM, biotin-MyD88peptide 25 nM; read-out: IC50* (μM) on Myd88-ERK1 in HRTF Assay

Examples from the recorded data:
CN(C)c1ccc(-c2nc3cc(NC(=O)c4ccccc4)ccc3[nH]2)cc1 [Comp. ex., reference compound] | > 50 µM
CN(C)c1ccc(-c2nc3cc(C(=O)Nc4ccncc4)ccc3[nH]2)cc1 | 8 µM
COc1ccc(NC(=O)c2ccc3[nH]c(-c4ccc(N(C)C)cc4)nc3c2)cn1 | 4.44 µM

Q: Entry `CCc1ccc(NC(=O)c2ccc3[nH]c(-c4ccc(N(C)C)cc4)nc3c2)cn1` has what IC50?
Result: 6.15 µM
